assay_procedure: Antioxidant activity assessed as DPPH radical scavenging activity at 20 uM measured after 25 mins by microplate reader based assay relative to control
Format: functional
Collected Activity values appear next to each entry.
The answer is to be given in %; state only the numeric part.

Observe how each entry below is paired with its result.
COc1cc(/C=C/C(=O)NCCC(=O)Nc2ccc(Cl)cc2)ccc1O | 18.7
COc1cc(/C=C/C(=O)O)ccc1O [FERULATE] | 33.1
COc1cc(/C=C/C(=O)N2CCN(Cc3cccc(F)c3)CC2)ccc1O | 40.2

// switching to the query compound
input: Provide only the value of recorded Activity for COc1ccc(CN2CCN(C(=O)/C=C/c3ccc(O)c(OC)c3)CC2)cc1
output: 30.5

----------
assay_procedure: Antioxidant activity assessed as DPPH radical scavenging activity at 20 uM measured after 25 mins by microplate reader based assay relative to control
Type: functional
recorded_endpoint: Activity (%)
The answer is to be given in %; state only the numeric part.

COc1cc(/C=C/C(=O)NCC(=O)NCCc2c[nH]c3ccc(Cl)cc23)ccc1O | 47.3
COc1cc(/C=C/C(=O)N2CCN(Cc3ccccc3)CC2)ccc1O | 38.4
COc1ccc2[nH]cc(CCNC(=O)CNC(=O)/C=C/c3ccc(O)c(OC)c3)c2c1 | 51.9
COc1cc(/C=C/C(=O)NCCC(=O)Nc2ccccc2)ccc1O | 10.6

// switching to the query compound
input: Provide only the value of recorded Activity for COc1cc(/C=C/C(=O)NCC(=O)NCCc2c[nH]c3ccccc23)ccc1O
output: 38.5

----------
assay_procedure: Antioxidant activity assessed as DPPH radical scavenging activity at 20 uM measured after 25 mins by microplate reader based assay relative to control
Type: functional
Collected Activity values appear next to each entry.
The answer is to be given in %; state only the numeric part.

Observe how each entry below is paired with its result.
COc1cc(/C=C/C(=O)N2CCN(Cc3cccc(C)c3)CC2)ccc1O | 26.3
COc1cc(/C=C/C(=O)N2CCN(Cc3ccc(F)cc3)CC2)ccc1O | 23.1
COc1cccc(NC(=O)CCNC(=O)/C=C/c2ccc(O)c(OC)c2)c1 | 21.3
COc1cc(/C=C/C(=O)N2CCN(Cc3ccc(Cl)cc3)CC2)ccc1O | 32.4

input: Provide only the value of recorded Activity for COc1cc(/C=C/C(=O)N2CCN(Cc3cccc(Cl)c3)CC2)ccc1O
output: 23.1

----------
test_system: UniProt P81908
Sequence (P81908 whole entry): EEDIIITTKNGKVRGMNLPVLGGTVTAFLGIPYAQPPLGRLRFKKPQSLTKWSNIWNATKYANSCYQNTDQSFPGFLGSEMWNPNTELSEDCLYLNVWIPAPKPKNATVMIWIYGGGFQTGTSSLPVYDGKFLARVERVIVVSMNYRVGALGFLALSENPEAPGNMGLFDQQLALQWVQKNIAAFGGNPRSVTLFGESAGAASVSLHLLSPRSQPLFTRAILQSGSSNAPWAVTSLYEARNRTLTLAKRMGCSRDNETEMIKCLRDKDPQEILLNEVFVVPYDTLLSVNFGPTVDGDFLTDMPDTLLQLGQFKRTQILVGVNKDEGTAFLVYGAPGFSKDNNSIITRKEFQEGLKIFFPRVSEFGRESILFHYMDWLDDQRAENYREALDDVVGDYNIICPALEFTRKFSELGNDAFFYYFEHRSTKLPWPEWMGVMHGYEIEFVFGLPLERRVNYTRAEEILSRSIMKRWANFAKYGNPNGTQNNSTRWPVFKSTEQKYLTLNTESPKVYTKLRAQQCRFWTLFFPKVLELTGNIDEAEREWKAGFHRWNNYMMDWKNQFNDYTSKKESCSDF
assay_procedure: Inhibition of equine serum BChE using butyrylthiocholine iodide as substrate at 20 uM preincubated with enzyme for 30 mins followed by substrate addition and measured after 30 mins by Ellman's method relative to control
Type: cell-free
test_context: time 60.0 min
Collected inhibition values appear next to each entry.
The answer is to be given in %; state only the numeric part.

Observe how each entry below is paired with its result.
COc1cc(/C=C/C(=O)N2CCN(Cc3ccccc3)CC2)ccc1O | 45.1
COc1ccc(CN2CCN(C(=O)/C=C/c3ccc(O)c(OC)c3)CC2)cc1 | 45.1
COc1cccc(CN2CCN(C(=O)/C=C/c3ccc(O)c(OC)c3)CC2)c1 | 49.1

// switching to the query compound
input: Provide only the value of recorded inhibition for COc1cc(/C=C/C(=O)O)ccc1O [FERULATE]
output: 17.1

----------
Collected Papp at 18 h, 500 µM values appear next to each entry.
assay_procedure: Permeability of the compound in PBS buffer at pH 7.4 at 500 uM incubated for 18 hrs by PAMPA-BBB assay
The answer is to be given in ×10⁻⁶ cm/s; state only the numeric part.

COc1ccc2[nH]cc(CCNC(=O)CNC(=O)/C=C/c3ccc(O)c(OC)c3)c2c1 | 8.51

// switching to the query compound
input: Provide only the value of recorded Papp at 18 h, 500 µM for COc1cc(/C=C/C(=O)N2CCN(Cc3cccc(F)c3)CC2)ccc1O
output: 9.57

Values from ChEMBL document CHEMBL4808254
